Source of measurements: ChEMBL document CHEMBL1136447

Test system: M14
Experiment: In vitro cytotoxic activity against Melanoma (M14) cell line at a concentration of 10e-5 M
Assay type: functional, Homo sapiens
test.readout: Growth
# include the unit after the value

Report Growth for CC1(C)C(=O)C=C[C@@]2(C)C1C[C@@H](OC(=O)/C=C\c1ccccc1)[C@@]1(C)C3=CC[C@@H](c4ccoc4)[C@]3(C)CCC21 (some centres undefined)
41%

Report Growth for COc1ccc(/C=C\C(=O)O[C@@H]2CC3C(C)(C)C(=O)C=C[C@]3(C)C3CC[C@]4(C)C(=CC[C@H]4c4ccoc4)[C@@]32C)cc1OC (some centres undefined)
39%

Report Growth for CCC(=O)O[C@@H]1CC2C(C)(C)C(=O)C=C[C@]2(C)C2CC[C@]3(C)C(=CC[C@H]3c3ccoc3)[C@@]21C (some centres undefined)
39%

Report Growth for CC1(C)C(=O)C=C[C@@]2(C)C1C[C@@H](OC(=O)C(F)(F)F)[C@@]1(C)C3=CC[C@@H](c4ccoc4)[C@]3(C)CCC21 (some centres undefined)
86%

Report Growth for CC(=O)O[C@@H]1CC2C(C)(C)C(=O)C=C[C@]2(C)C2CC[C@]3(C)C(=CC[C@H]3c3ccoc3)[C@@]21C (some centres undefined)
-6%

Report Growth for CC(=O)O[C@@H]1CC2C(C)(C)C(=O)[C@@H]3O[C@@H]3[C@]2(C)C2CC[C@]3(C)C(=CC[C@H]3c3ccoc3)[C@@]21C (some centres undefined)
100%

Report Growth for CC(=O)O[C@@H]1CC2C(C)(C)/C(=N/OCCN3CCCC3)C=C[C@]2(C)C2CC[C@]3(C)C(=CC[C@H]3c3ccoc3)[C@@]21C (some centres undefined)
26%

Report Growth for CCCC(=O)O[C@@H]1CC2C(C)(C)C(=O)C=C[C@]2(C)C2CC[C@]3(C)C(=CC[C@H]3c3ccoc3)[C@@]21C (some centres undefined)
59%

Report Growth for CC1(C)C(=O)C=C[C@@]2(C)C1C[C@@H](OC(=O)Nc1ccccc1)[C@@]1(C)C3=CC[C@@H](c4ccoc4)[C@]3(C)CCC21 (some centres undefined)
74%

Report Growth for CC(=O)OC1C=C[C@@]2(C)C(C[C@@H](OC(C)=O)[C@@]3(C)C4=CC[C@@H](c5ccoc5)[C@]4(C)CCC23)C1(C)C (some centres undefined)
76%

Report Growth for CCO[C@@H]1CC2C(C)(C)C(=O)C=C[C@]2(C)C2CC[C@]3(C)C(=CC[C@H]3c3ccoc3)[C@@]21C (some centres undefined)
61%

Report Growth for CC(C)(C)OC(=O)NCC(=O)O[C@@H]1CC2C(C)(C)C(=O)C=C[C@]2(C)C2CC[C@]3(C)C(=CC[C@H]3c3ccoc3)[C@@]21C (some centres undefined)
58%

Report Growth for CC(=O)O[C@H]1C[C@@H](OC(C)=O)C(C)(C)C2C[C@@H](OC(C)=O)[C@@]3(C)C4=CC[C@@H](c5ccoc5)[C@]4(C)CCC3[C@]21C (some centres undefined)
-22%

Report Growth for COC1=C[C@@]2(C)C(C[C@@H](OC(C)=O)[C@@]3(C)C4=CC[C@@H](c5ccoc5)[C@]4(C)CCC23)C(C)(C)C1=O (some centres undefined)
67%

Report Growth for CCOC1=C[C@@]2(C)C(C[C@@H](O)[C@@]3(C)C4=CC[C@@H](c5ccoc5)[C@]4(C)CCC23)C(C)(C)C1=O (some centres undefined)
67%

Report Growth for CC(=O)O[C@@H]1CC2C(C)(C)/C(=N/O)C=C[C@]2(C)C2CC[C@]3(C)C(=CC[C@H]3c3ccoc3)[C@@]21C (some centres undefined)
38%

Report Growth for CC1(C)C(O)C=C[C@@]2(C)C1C[C@@H](O)[C@@]1(C)C3=CC[C@@H](c4ccoc4)[C@]3(C)CCC21 (some centres undefined)
100%
